Target: Grb2 SH2 (UniProt P62993)
Sequence (P62993 whole entry, looked up): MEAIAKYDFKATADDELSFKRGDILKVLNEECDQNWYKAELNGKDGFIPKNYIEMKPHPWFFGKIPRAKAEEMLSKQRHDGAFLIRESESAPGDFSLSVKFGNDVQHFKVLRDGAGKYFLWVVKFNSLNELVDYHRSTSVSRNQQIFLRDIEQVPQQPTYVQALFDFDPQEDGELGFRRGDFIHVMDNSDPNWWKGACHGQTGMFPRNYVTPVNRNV
Experiment: SH2 binding enrichment of the phosphorylated peptide, bacterial display (enrichment ratio); higher = better substrate or ligand; peptides without Tyr show the background

| residue.string | SH2 binding enrichment |
| --- | --- |
| QMIETYFDFRV [NSMF_Y506_L511V] | 0.642 |
| MSRDVYSIDFF [NTRK2_Y702_T704I_YF] | 1.03 |
| RPFSPYIIRGM [LRP5_Y1531_R1529S_YF] | 0.834 |
| VSSPKYGGDDE [TMCC2_Y473_S475G] | 1.06 |
| NAPNSYGRRLI [CDKN2A_Y44_P48L] | 0.897 |
| SGRRRYTIAAL [TTR_Y125_P122R] | 0.58 |
| RGVTRYIFNRE [HLA-DQB1_Y62_Y58G_YF] | 0.821 |
| LSPNMYNSKLW [TARSL2_Y457] | 1.09 |
| FGMSTYITRED [FNDC3B_Y180_YF] | 0.802 |
| RQSTLYSFFPT [MSH6_Y8_K13T] | 1 |
| WFQTKYEELQV [KRT6B_Y360_I365V_YF] | 0.891 |
| MSPPGYKLVTG [GJA1_Y286] | 0.701 |
| NAGAFYVLSTL [FLVCR2_Y325_A326V] | 0.634 |

* * *

Documented phosphorylation enrichment across a set of sequences
Biological target: FGFR3 (UniProt P22607)
Sequence (P22607 whole entry, looked up): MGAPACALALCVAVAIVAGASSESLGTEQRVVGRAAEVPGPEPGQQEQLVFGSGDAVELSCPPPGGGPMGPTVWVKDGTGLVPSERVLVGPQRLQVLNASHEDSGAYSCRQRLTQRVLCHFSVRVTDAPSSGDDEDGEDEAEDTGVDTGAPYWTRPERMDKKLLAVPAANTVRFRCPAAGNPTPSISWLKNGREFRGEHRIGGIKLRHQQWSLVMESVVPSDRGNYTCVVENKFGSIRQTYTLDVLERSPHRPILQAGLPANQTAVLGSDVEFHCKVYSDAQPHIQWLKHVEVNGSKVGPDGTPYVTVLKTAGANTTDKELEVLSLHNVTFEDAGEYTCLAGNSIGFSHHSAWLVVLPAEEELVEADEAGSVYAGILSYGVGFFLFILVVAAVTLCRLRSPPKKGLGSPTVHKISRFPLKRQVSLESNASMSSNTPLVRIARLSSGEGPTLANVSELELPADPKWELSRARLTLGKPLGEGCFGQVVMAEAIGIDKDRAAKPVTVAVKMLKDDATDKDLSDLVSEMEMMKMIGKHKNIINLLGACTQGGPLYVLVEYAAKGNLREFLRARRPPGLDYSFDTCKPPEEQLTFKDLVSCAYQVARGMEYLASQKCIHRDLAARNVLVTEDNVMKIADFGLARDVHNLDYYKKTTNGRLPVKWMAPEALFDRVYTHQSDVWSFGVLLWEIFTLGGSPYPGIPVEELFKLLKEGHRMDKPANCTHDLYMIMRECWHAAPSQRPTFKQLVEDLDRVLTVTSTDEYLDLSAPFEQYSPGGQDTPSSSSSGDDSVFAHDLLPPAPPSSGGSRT
Test: phosphorylation enrichment, bacterial display (enrichment ratio); higher = better substrate or ligand; peptides without Tyr show the background

| residue.string | subject.of.test | phosphorylation enrichment |
| --- | --- | --- |
| RYLKDYGEFEV [GINS1_Y156_C152Y] | FGFR3 (UniProt P22607) | 1.36 |
| LRGEDYGFSVD [PRKCI_Y430] | FGFR3 (UniProt P22607) | 0.835 |
| SISFDYCRVPM [BST2_Y8_T4I_YF] | FGFR3 (UniProt P22607) | 1.39 |
| MDNQEYKDAFT [BRDT_Y331_K336T_YF] | FGFR3 (UniProt P22607) | 0.802 |
| LPKDLYLISQM [LARP4_Y141_S137P] | FGFR3 (UniProt P22607) | 1.55 |
| RLGLQYSQGLV [EIF2B4_Y214] | FGFR3 (UniProt P22607) | 0.851 |
| WEPFGFAVTRC [PTPRT_Y412_Y412F] | FGFR3 (UniProt P22607) | 0.845 |
| SARFRYLLAEK [LDHB_Y173_M175L] | FGFR3 (UniProt P22607) | 0.55 |
| NVSILYTASQA [CTNNA1_Y222_P219S] | FGFR3 (UniProt P22607) | 0.725 |
| CEAMEYPESKQ [BTK_Y511_L512P] | FGFR3 (UniProt P22607) | 0.736 |
| GRVLGYGAFGK [FLT4_Y853] | FGFR3 (UniProt P22607) | 0.474 |
| DEDYLYREELA [POR_Y575] | FGFR3 (UniProt P22607) | 1.18 |
| EEVKAYLDFRE [CHAC2_Y78] | FGFR3 (UniProt P22607) | 0.865 |
| IPGGIYDADLN [CST4_Y35] | FGFR3 (UniProt P22607) | 0.836 |
| SGRPGYCLGTR [SCO1_Y60] | FGFR3 (UniProt P22607) | 0.563 |
| PVKDPYVMFPQ [PLEKHG2_Y489] | FGFR3 (UniProt P22607) | 1.54 |
| ELTAKYLNYYQ [P3H4_Y181] | FGFR3 (UniProt P22607) | 0.71 |
| KSFDMYSGDVM [FAM3D_Y122_A118S] | FGFR3 (UniProt P22607) | 0.667 |
| EAKENYGKTLK [CHL1_Y291_T287A] | FGFR3 (UniProt P22607) | 0.441 |
| ISRVLYPNDNF [PYGM_Y281] | FGFR3 (UniProt P22607) | 0.472 |
| QEIATYRRLPE [KRT16_Y417_L421P] | FGFR3 (UniProt P22607) | 0.737 |
| AGIVVYNIIGW [MYH7_Y588_D587V] | FGFR3 (UniProt P22607) | 0.807 |
| KGEPQYSSHSS [SIPA1L3_Y1265] | FGFR3 (UniProt P22607) | 0.421 |
| VFSTDYFRVGG [NTRK2_Y706_YF] | FGFR3 (UniProt P22607) | 3.75 |
| ACVARYIFKRL [LPCAT3_Y348_W344C] | FGFR3 (UniProt P22607) | 0.553 |
| DLTQDYEEWKR [ORC6_Y232] | FGFR3 (UniProt P22607) | 0.862 |
| EQYELHCEMGS [CBL_Y371_Y371H] | FGFR3 (UniProt P22607) | 0.818 |
| QLHEHYKIHKE [NSMAF_Y626] | FGFR3 (UniProt P22607) | 0.772 |
| DNPAKYFILEN [DPP10_Y512_S517N] | FGFR3 (UniProt P22607) | 0.617 |
| FGGLRYGFGGL [KRTAP20-2_Y13_V17G_YF] | FGFR3 (UniProt P22607) | 0.536 |
| SVSNNYIQTLG [CTNND1_Y174] | FGFR3 (UniProt P22607) | 0.585 |
| YGMQLYQKYMH [GRB14_Y347_N349K] | FGFR3 (UniProt P22607) | 0.581 |
| MLEAPYVDRNS [F10_Y384_V382A] | FGFR3 (UniProt P22607) | 0.557 |
| EEGRVYVYHLS [ITGAE_Y549_R552H] | FGFR3 (UniProt P22607) | 0.75 |
| GVIKEYQIRQV [USH2A_Y3623] | FGFR3 (UniProt P22607) | 0.476 |
| EALDFCGEVRT [PTEN_Y155_Y155C] | FGFR3 (UniProt P22607) | 1.09 |
| ESLRRYLENGK [HLA-B_Y195_W191S] | FGFR3 (UniProt P22607) | 0.45 |
| KVGNGYISAAE [CALM2_Y100_D96V] | FGFR3 (UniProt P22607) | 0.588 |
| VYPATYHPDHW [EFCAB12_Y544] | FGFR3 (UniProt P22607) | 0.828 |
| HFVDEYDRTIE [KRAS_Y32_P34R] | FGFR3 (UniProt P22607) | 0.932 |
| LLLLFYVVRFC [MPZ_Y177_YF] | FGFR3 (UniProt P22607) | 0.742 |
| GRTPLYMDRQG [AGXT_Y194_G190R] | FGFR3 (UniProt P22607) | 0.415 |
| SNSATYSGSVA [PDLIM5_Y382] | FGFR3 (UniProt P22607) | 0.483 |
| GDGRFYMKEAI [PGM1_Y66] | FGFR3 (UniProt P22607) | 0.682 |
| LSSEMCVKSYT [F5_Y2149_Y2149C] | FGFR3 (UniProt P22607) | 1.04 |
| VVAHQYSFAPD [TNS3_Y601] | FGFR3 (UniProt P22607) | 0.727 |
| YRVAGYETQGG [TIA1_Y383] | FGFR3 (UniProt P22607) | 0.352 |
| MEIHAYHKLLE [LMNA_Y376_R377H] | FGFR3 (UniProt P22607) | 0.746 |
| NFNPNYCFAGK [ALK_Y1096_D1091N_YF] | FGFR3 (UniProt P22607) | 0.666 |
| EDGCIYPATIA [SMN1_Y109] | FGFR3 (UniProt P22607) | 0.727 |
| FADIAYIFRHG [PAH_Y166_N167I_YF] | FGFR3 (UniProt P22607) | 0.626 |
| RAQIRYAQEHD [NSD1_Y1987_R1984Q] | FGFR3 (UniProt P22607) | 0.768 |
| LSPNMYNSKFW [TARSL2_Y457_L461F] | FGFR3 (UniProt P22607) | 0.924 |
| TVSTRYTQPQP [SARG_Y259] | FGFR3 (UniProt P22607) | 0.39 |
| RGVTRYIFNRE [HLA-DQB1_Y62_Y58G_YF] | FGFR3 (UniProt P22607) | 1.27 |
| GSERDYTYEEL [EIF2S2_Y174] | FGFR3 (UniProt P22607) | 0.711 |
| ERLLDYTRTVQ [INPP5E_Y439] | FGFR3 (UniProt P22607) | 0.665 |
| SLMNQYVNKKF [RAB7A_Y28] | FGFR3 (UniProt P22607) | 0.396 |
